assay: Chromatographic hydrophobicity index, logD of the compound at pH 7.4 by UPLC analysis; assay type: physicochemical; conditions: buffer
VALUE TYPE: CHI
Write the value as a bare number.

(Q) Respond only with CHI recorded for `CC(C)NC(=O)N1CC2(C1)C(=O)N(Cc1nc3cc(Cl)ccc3n1CCCC(F)(F)F)c1cnccc12`
(A) 2.39

(Q) Respond only with CHI recorded for `CC(C)C(=O)N1CC2(C1)C(=O)N(Cc1nc3cc(Cl)ccc3n1CCCCF)c1cnccc12`
(A) 2.14

(Q) Respond only with CHI recorded for `CS(=O)(=O)N1CC2(C1)C(=O)N(Cc1nc3cc(Cl)ccc3n1CCCC(F)(F)F)c1ccccc12`
(A) 3.39

(Q) Respond only with CHI recorded for `O=C1N(Cc2nc3cc(Cl)ccc3n2CCCC(F)(F)F)c2cnccc2C12CN(S(=O)(=O)C1CC1)C2`
(A) 2.81

(Q) Respond only with CHI recorded for `CC(C)NC(=O)N1CC2(C1)C(=O)N(Cc1nc3cc(Cl)ccc3n1CCCC#N)c1ccccc12`
(A) 2.37

(Q) Respond only with CHI recorded for `CC(C)(O)C(=O)N1CC2(C1)C(=O)N(Cc1nc3cc(Cl)ccc3n1CCCC(F)(F)F)c1ccccc12`
(A) 2.84

###

tested on: Respiratory syncytial virus; assay: Antiviral activity against RSV A/12-049454 harboring eGFP infected in human HeLa cells assessed as reduction in virus replication measured after 3 days by laser microscopy; assay type: functional, organism-based; settings: A/12-049454, HeLa, 72 h
VALUE TYPE: EC50 (nM)
Answer format: numeric, nM implied, no suffix.

(Q) Respond only with EC50 recorded for `CS(=O)(=O)N1CC2(C1)C(=O)N(Cc1nc3cc(Cl)ccc3n1CCCC(F)(F)F)c1ccccc12`
(A) 1.6

###

experiment: Intrinsic clearance in human hepatocytes assessed per million cells measured after 6 hrs using tritiated compound by LC-MS/MS analysis; format: ADME, cell-based, Hepatocyte; conditions: read-out: CLH
VALUE TYPE: hepatocyte CLint

(Q) Respond only with hepatocyte CLint recorded for `CS(=O)(=O)N1CC2(C1)C(=O)N(Cc1nc3cc(Cl)ccc3n1CCCC(F)(F)F)c1ccccc12`
(A) < 1.2 µL/min/1e6 cells

###

Exercise: state measured solubility thermodynamic at 24 h for each of the molecules provided.
assay: Thermodynamic solubility in aqueous buffer at pH 7 incubated for 24 hrs by UPLC analysis; format: physicochemical; conditions: read-out: Therm_solubility

(Q) Respond only with solubility thermodynamic at 24 h recorded for `CC(C)NC(=O)N1CC2(C1)C(=O)N(Cc1nc3cc(Cl)ccc3n1CCCC(F)(F)F)c1cnccc12`
(A) < 0.1 µg/mL

(Q) Respond only with solubility thermodynamic at 24 h recorded for `O=C1N(Cc2nc3cc(Cl)ccc3n2CCCC(F)(F)F)c2cnccc2C12CN(S(=O)(=O)C1CC1)C2`
(A) < 0.1 µg/mL

(Q) Respond only with solubility thermodynamic at 24 h recorded for `CC(C)(O)C(=O)N1CC2(C1)C(=O)N(Cc1nc3cc(Cl)ccc3n1CCCC(F)(F)F)c1ccccc12`
(A) < 0.1 µg/mL

(Q) Respond only with solubility thermodynamic at 24 h recorded for `CS(=O)(=O)N1CC2(C1)C(=O)N(Cc1nc3cc(Cl)ccc3n1CCCC(F)(F)F)c1ccccc12`
(A) < 0.1 µg/mL

(Q) Respond only with solubility thermodynamic at 24 h recorded for `CC(C)C(=O)N1CC2(C1)C(=O)N(Cc1nc3cc(Cl)ccc3n1CCCCF)c1cnccc12`
(A) 44 µg/mL

(Q) Respond only with solubility thermodynamic at 24 h recorded for `CC(C)NC(=O)N1CC2(C1)C(=O)N(Cc1nc3cc(Cl)ccc3n1CCCC#N)c1ccccc12`
(A) < 0.1 µg/mL

###

tested on: Respiratory syncytial virus; assay: Antiviral activity against RSV A2 harboring eGFP infected in human HeLa cells assessed as reduction in virus replication by measuring 3X protein-adjusted effective concentration for 90% inhibition measured after 3 days in presence of human serum albumin and alpha(1)-acid glycoprotein by laser microscopy; format: functional; conditions: time 3 day
Exercise: state measured protein-adjusted EC90 for each of the compounds provided.
Answer format: numeric, µg/mL implied, no suffix.

(Q) Respond only with protein-adjusted EC90 recorded for `CC(C)C(=O)N1CC2(C1)C(=O)N(Cc1nc3cc(Cl)ccc3n1CCCCF)c1cnccc12`
(A) 0.017

(Q) Respond only with protein-adjusted EC90 recorded for `CC(C)(O)C(=O)N1CC2(C1)C(=O)N(Cc1nc3cc(Cl)ccc3n1CCCC(F)(F)F)c1ccccc12`
(A) 0.031

(Q) Respond only with protein-adjusted EC90 recorded for `CC(C)NC(=O)N1CC2(C1)C(=O)N(Cc1nc3cc(Cl)ccc3n1CCCC#N)c1ccccc12`
(A) 0.06

(Q) Respond only with protein-adjusted EC90 recorded for `O=C1N(Cc2nc3cc(Cl)ccc3n2CCCC(F)(F)F)c2cnccc2C12CN(S(=O)(=O)C1CC1)C2`
(A) 0.0082

(Q) Respond only with protein-adjusted EC90 recorded for `CC(C)NC(=O)N1CC2(C1)C(=O)N(Cc1nc3cc(Cl)ccc3n1CCCC(F)(F)F)c1cnccc12`
(A) 0.0037

(Q) Respond only with protein-adjusted EC90 recorded for `CS(=O)(=O)N1CC2(C1)C(=O)N(Cc1nc3cc(Cl)ccc3n1CCCC(F)(F)F)c1ccccc12`
(A) 0.034

###

assay: Bioavailability in Beagle dog assessed as dose released at 20 mg/kg, IM by LC-MS/MS analysis; format: ADME, organism-based, Canis lupus familiaris; conditions: in vivo
Exercise: state measured bioavailability for each of the compounds provided.
# include the unit after the value

(Q) Respond only with bioavailability recorded for `CC(C)(O)C(=O)N1CC2(C1)C(=O)N(Cc1nc3cc(Cl)ccc3n1CCCC(F)(F)F)c1ccccc12`
(A) 102%

(Q) Respond only with bioavailability recorded for `CC(C)NC(=O)N1CC2(C1)C(=O)N(Cc1nc3cc(Cl)ccc3n1CCCC#N)c1ccccc12`
(A) 51%

(Q) Respond only with bioavailability recorded for `CS(=O)(=O)N1CC2(C1)C(=O)N(Cc1nc3cc(Cl)ccc3n1CCCC(F)(F)F)c1ccccc12`
(A) 50%

(Q) Respond only with bioavailability recorded for `CC(C)NC(=O)N1CC2(C1)C(=O)N(Cc1nc3cc(Cl)ccc3n1CCCC(F)(F)F)c1cnccc12`
(A) 90%

(Q) Respond only with bioavailability recorded for `O=C1N(Cc2nc3cc(Cl)ccc3n2CCCC(F)(F)F)c2cnccc2C12CN(S(=O)(=O)C1CC1)C2`
(A) 93%

(Q) Respond only with bioavailability recorded for `CC(C)C(=O)N1CC2(C1)C(=O)N(Cc1nc3cc(Cl)ccc3n1CCCCF)c1cnccc12`
(A) 122%

###

test system: Canis familiaris; assay: Release rate constant in Beagle dog at 20 mg/kg, IM by LC-MS/MS analysis; format: ADME, organism-based, Canis lupus familiaris; conditions: in vivo
VALUE TYPE: Ka (h⁻¹)
Answer format: numeric, h⁻¹ implied, no suffix.

(Q) Respond only with Ka recorded for `CC(C)(O)C(=O)N1CC2(C1)C(=O)N(Cc1nc3cc(Cl)ccc3n1CCCC(F)(F)F)c1ccccc12`
(A) 0.003

(Q) Respond only with Ka recorded for `CC(C)NC(=O)N1CC2(C1)C(=O)N(Cc1nc3cc(Cl)ccc3n1CCCC#N)c1ccccc12`
(A) 0.001

(Q) Respond only with Ka recorded for `CS(=O)(=O)N1CC2(C1)C(=O)N(Cc1nc3cc(Cl)ccc3n1CCCC(F)(F)F)c1ccccc12`
(A) 0

(Q) Respond only with Ka recorded for `CC(C)C(=O)N1CC2(C1)C(=O)N(Cc1nc3cc(Cl)ccc3n1CCCCF)c1cnccc12`
(A) 0.033

(Q) Respond only with Ka recorded for `CC(C)NC(=O)N1CC2(C1)C(=O)N(Cc1nc3cc(Cl)ccc3n1CCCC(F)(F)F)c1cnccc12`
(A) 0.01

(Q) Respond only with Ka recorded for `O=C1N(Cc2nc3cc(Cl)ccc3n2CCCC(F)(F)F)c2cnccc2C12CN(S(=O)(=O)C1CC1)C2`
(A) 0.01

###

tested on: Rattus norvegicus; test: Release rate constant in Sprague-Dawley rat at 50 mg/kg, IM measured over 12 weeks by LC-MS/MS analysis; type: ADME, organism-based; conditions: in vivo, 2016 h
label 1 means recorded Ka is 0.001 h⁻¹ or above; label 0 means it is below 0.001 h⁻¹.

(Q) Is Ka for `CC(C)NC(=O)N1CC2(C1)C(=O)N(Cc1nc3cc(Cl)ccc3n1CCCC(F)(F)F)c1cnccc12` at or above 0.001 h⁻¹?
(A) label 1

(Q) Is Ka for `O=C1N(Cc2nc3cc(Cl)ccc3n2CCCC(F)(F)F)c2cnccc2C12CN(S(=O)(=O)C1CC1)C2` at or above 0.001 h⁻¹?
(A) label 1

(Q) Is Ka for `CC(C)C(=O)N1CC2(C1)C(=O)N(Cc1nc3cc(Cl)ccc3n1CCCCF)c1cnccc12` at or above 0.001 h⁻¹?
(A) label 1

(Q) Is Ka for `CS(=O)(=O)N1CC2(C1)C(=O)N(Cc1nc3cc(Cl)ccc3n1CCCC(F)(F)F)c1ccccc12` at or above 0.001 h⁻¹?
(A) label 0

(Q) Is Ka for `CC(C)NC(=O)N1CC2(C1)C(=O)N(Cc1nc3cc(Cl)ccc3n1CCCC#N)c1ccccc12` at or above 0.001 h⁻¹?
(A) label 0

Data origin, for the record: ChEMBL document CHEMBL6134778
